# assay notes: 8-day repeat-dose study, tolerability (blood chemistry, hematology, adverse events) in tumor-bearing dogs
# Type: in vivo, dog
# condition description: Dog 5; Post: 30 min after last injection on day 8; 10 mg s.c. once daily for 8 days
# Protocol: Previous studies utilizing repeat dosing in mice and rats established safe starting doses for studies using dogs. […] Blood levels of AFPep were measured before and 30 minutes following its administration on the first day and eighth day of treatment with AFPep. […] Tolerability was assessed using the Veterinary Cooperative Oncology Group Common Terminology Criteria for Adverse Events. […]
Where a SMILES comes first, the peptide text is derived from it. [ ]: non-standard residue; d: D form. Hyp = O=C(O)[C@@H]1C[C@@H](O)CN1
readout kind: Total Protein (g/dL)
Answers are plain numbers, in g/dL.

Which Total Protein is listed for CC(C)[C@@H]1NC(=O)[C@@H]2C[C@@H](O)CN2C(=O)[C@H]([C@@H](C)O)NC(=O)[C@H](CCCCN)NC(=O)[C@H](CCC(=O)O)NC(=O)[C@H](CC(N)=O)NC(=O)CNC(=O)[C@@H]2C[C@@H](O)CN2C(=O)[C@H](CC(N)=O)NC1=O [AFPep] (cyclo(EKT[Hyp]VN[Hyp]GN)) ?
7

====

# assay notes: Pharmacokinetics in mice
# Format: in vivo
# condition description: iv; mouse; 4 mg/kg; plasma LC/MS/MS
Where a SMILES comes first, the peptide text is derived from it. [ ]: non-standard residue; d: D form. Hyp = O=C(O)[C@@H]1C[C@@H](O)CN1
readout kind: AUC
Put your answer as a value accompanied by its unit after it.

Which AUC is listed for CC(C)[C@@H]1NC(=O)[C@@H]2C[C@@H](O)CN2C(=O)[C@H]([C@@H](C)O)NC(=O)[C@H](CCCCN)NC(=O)[C@H](CCC(=O)O)NC(=O)[C@H](CC(N)=O)NC(=O)CNC(=O)[C@@H]2C[C@@H](O)CN2C(=O)[C@H](CC(N)=O)NC1=O [AFPep] (cyclo(EKT[Hyp]VN[Hyp]GN)) ?
4200 ng·h/mL

====

# assay notes: 8-day repeat-dose study, tolerability (blood chemistry, hematology, adverse events) in tumor-bearing dogs
# Assay type: in vivo, dog
# condition description: Dog 6; Post: 30 min after last injection on day 8; 10 mg s.c. once daily for 8 days
Where a SMILES comes first, the peptide text is derived from it. [ ]: non-standard residue; d: D form. Hyp = O=C(O)[C@@H]1C[C@@H](O)CN1
readout kind: Phosphorous (mg/dL)
One number for each entry, in mg/dL.

Which Phosphorous is listed for CC(C)[C@@H]1NC(=O)[C@@H]2C[C@@H](O)CN2C(=O)[C@H]([C@@H](C)O)NC(=O)[C@H](CCCCN)NC(=O)[C@H](CCC(=O)O)NC(=O)[C@H](CC(N)=O)NC(=O)CNC(=O)[C@@H]2C[C@@H](O)CN2C(=O)[C@H](CC(N)=O)NC1=O [AFPep] (cyclo(EKT[Hyp]VN[Hyp]GN)) ?
6

====

# assay notes: 8-day repeat-dose study, tolerability (blood chemistry, hematology, adverse events) in tumor-bearing dogs
# Assay type: in vivo, dog
# condition description: Dog 5; Post: 30 min after last injection on day 8; 10 mg s.c. once daily for 8 days
# Protocol: Previous studies utilizing repeat dosing in mice and rats established safe starting doses for studies using dogs. […] Blood levels of AFPep were measured before and 30 minutes following its administration on the first day and eighth day of treatment with AFPep. […] Tolerability was assessed using the Veterinary Cooperative Oncology Group Common Terminology Criteria for Adverse Events. […]
Where a SMILES comes first, the peptide text is derived from it. [ ]: non-standard residue; d: D form. Hyp = O=C(O)[C@@H]1C[C@@H](O)CN1
readout kind: Cholesterol (mg/dL)
Answers are plain numbers, in mg/dL.

Which Cholesterol is listed for CC(C)[C@@H]1NC(=O)[C@@H]2C[C@@H](O)CN2C(=O)[C@H]([C@@H](C)O)NC(=O)[C@H](CCCCN)NC(=O)[C@H](CCC(=O)O)NC(=O)[C@H](CC(N)=O)NC(=O)CNC(=O)[C@@H]2C[C@@H](O)CN2C(=O)[C@H](CC(N)=O)NC1=O [AFPep] (cyclo(EKT[Hyp]VN[Hyp]GN)) ?
373

src = paper PMC9913752
